- Read-out: Monokine induced gamma interferon (MIG), CXCL9 (gene 4283)
- procedure text: BSK_hDFCGF_MIG: BioMAP Diversity Plus: hDFCGF Assay for Monokine induced gamma interferon (MIG) Biomarker Activity (AID 2283063)
- measurement parameters: primary human foreskin fibroblasts; actives raise or lower the signal
Activity calls are given as the source filed them. The calls were made as follows: active = hit-call score of the fitted dose curve at least 0.9, where 1 is the maximum; inactive = score below 0.9.
Choose the fitting class; nothing outside yes = active, no = inactive is accepted.

Look over these answered cases.
molecule	group
CC=Cc1ccc(OCC)c(O)c1	no
CC(C)(N=C=O)c1cccc(C(C)(C)N=C=O)c1	no
CCOC(=O)C(C#N)=C(c1ccccc1)c1ccccc1	no
C=C(C)C(=O)OCCOCCOCCOC(=O)C(=C)C	no
CC(C)(C)CC(C)(C)c1ccc(OCCOCC[N+](C)(C)Cc2ccccc2)cc1	yes
Cc1cc(CCC(=O)OCCOCCOCCOC(=O)CCc2cc(C)c(O)c(C(C)(C)C)c2)cc(C(C)(C)C)c1O	no
CCC(C)c1cc([N+](=O)[O-])cc([N+](=O)[O-])c1OC(=O)OC(C)C (centres undefined)	yes
CS(=O)(=O)OCCCCOS(C)(=O)=O	no
C[C@@H]1CCN(C(=O)[C@H](CCCN=C(N)N)NS(=O)(=O)c2cccc3c2NC[C@H](C)C3)[C@@H](C(=O)O)C1	no
Clc1cc(Cl)c(-c2c(Cl)c(Cl)cc(Cl)c2Cl)cc1Cl	no

Query: Outcome logged for `CN(c1nccc(=O)[nH]1)C1CCN(c2nc3ccccc3n2Cc2ccc(F)cc2)CC1` in this assay:
Response: no

Query: Cool, now `O=C1OC2(c3ccccc31)c1ccc(O)c(Br)c1Oc1c2ccc(O)c1Br`
Response: no

Query: Cool, now `CCN(CC)C(=O)N(CC)CC`
Response: no

====

- Read-out: Monocyte Chemoattractant Protein-1 (MCP1), CCL2 (gene 6347)
- procedure text: BSK_CASM3C_MCP1: BioMAP Diversity Plus: CASM3C Assay for Monocyte Chemoattractant Protein-1 (MCP1) Biomarker Activity (AID 2283046);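 also: MCP-1 level quantified by ELISA 24 h after dosing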
- measurement parameters: primary human coronary artery smooth muscle cells; actives raise or lower the signal
Activity calls are given as the source filed them. Rule for the calls: active = hit-call score of the fitted dose curve at least 0.9, where 1 is the maximum; inactive = score below 0.9.
Choose the fitting class; nothing outside YES (active), NO (inactive) is accepted.

Look over these answered cases.
molecule	group
COc1ccc(CCN2CCC(Nc3nc4ccccc4n3Cc3ccc(F)cc3)CC2)cc1	NO
CC(=O)c1c(C)c([N+](=O)[O-])c(C(C)(C)C)c([N+](=O)[O-])c1C	NO
CC=Cc1ccc(OCC)c(O)c1	NO
O=CN1CCOCC1	NO
C=C(C)C(=O)OCCOCCOCCOC(=O)C(=C)C	NO
CCCCCCCCCCCCCCCC(=O)OC/C=C(C)/C=C/C=C(C)/C=C/C1=C(C)CCCC1(C)C	NO
CS(=O)(=O)c1ccc(C2=C(c3ccccc3)C(=O)OC2)cc1	NO
O=C(Nc1ccc2c(O)c(N=Nc3ccc(N=Nc4ccc(S(=O)(=O)O)cc4)cc3)c(S(=O)(=O)O)cc2c1)c1ccccc1	NO

Query: Outcome logged for CCC(C)c1cc([N+](=O)[O-])cc([N+](=O)[O-])c1OC(=O)OC(C)C (centres undefined) in this assay:
Response: YES

Query: Cool, now `COc1ccc(OC)c(N=Nc2c(O)ccc3ccccc23)c1`
Response: NO

====

- measured on: Cellular tumor antigen p53 (Homo sapiens) (UniProt P04637)
- Sequence (P04637 whole entry, looked up): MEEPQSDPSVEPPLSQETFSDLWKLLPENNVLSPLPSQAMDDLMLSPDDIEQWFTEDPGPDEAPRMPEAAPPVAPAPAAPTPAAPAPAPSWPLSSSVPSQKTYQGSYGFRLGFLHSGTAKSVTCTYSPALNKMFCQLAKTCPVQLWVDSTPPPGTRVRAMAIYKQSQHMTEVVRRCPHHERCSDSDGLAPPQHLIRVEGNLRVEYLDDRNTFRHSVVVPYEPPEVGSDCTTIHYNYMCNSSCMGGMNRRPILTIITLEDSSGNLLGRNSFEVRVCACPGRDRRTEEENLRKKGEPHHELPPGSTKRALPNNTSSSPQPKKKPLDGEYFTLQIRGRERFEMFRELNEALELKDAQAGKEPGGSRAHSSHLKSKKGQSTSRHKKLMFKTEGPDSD
- procedure text: TOX21_p53_BLA_p2_ratio: Tox21 HCT-116 p53 Agonism Beta-lactamase Assay, Ratio, Phase 2 (AID 2283592)
Inconclusive results are not listed. Calls of active or inactive are those of the source. How the source made its calls: active means hit-call score of the fitted dose curve at least 0.9, where 1 is the maximum; inconclusive means response in the unintended direction; inactive means score below 0.9.
endpoint name: AC50

Below are worked cases with known answers.
compound	measured on	AC50
CC1(C)O[C@@H]2[C@@H](CO[C@@]3(COS(N)(=O)=O)OC(C)(C)O[C@@H]23)O1	Cellular tumor antigen p53 (Homo sapiens) (UniProt P04637)	inactive
CCC1(C)NC(=O)NC1=O (stereo unspecified)	Cellular tumor antigen p53 (Homo sapiens) (UniProt P04637)	inactive
CCO/C=C1\N=C(c2ccccc2)OC1=O	Cellular tumor antigen p53 (Homo sapiens) (UniProt P04637)	inactive
CC1=NN(c2ccc(S(=O)(=O)O)cc2)C(=O)C1	Cellular tumor antigen p53 (Homo sapiens) (UniProt P04637)	inactive
C=C(C#N)C(=O)OCC	Cellular tumor antigen p53 (Homo sapiens) (UniProt P04637)	inactive

From here, focus on the item given below.
Query: Identify the measured AC50 of `CCc1cc(Cc2cc(CC)cc(C(C)(C)C)c2O)c(O)c(C(C)(C)C)c1` for Cellular tumor antigen p53 (Homo sapiens) (UniProt P04637).
Response: 14.9 µM (active)
